- EXPERIMENT SUMMARY: Surgical
- Assay type: in vivo
- DETAILS: human, non-enhancing tumor, oral, 60 mg
REPORTED PROPERTY: fraction unbound

>>> number("C[C@]12CCCN1CC1=NNC(=O)c3cc(F)cc4[nH]c2c1c34")
0.083

---

- EXPERIMENT SUMMARY: Surgical
- Assay type: in vivo
- DETAILS: human, enhancing tumor, oral, 60 mg
REPORTED PROPERTY: fraction unbound

>>> result("C[C@]12CCCN1CC1=NNC(=O)c3cc(F)cc4[nH]c2c1c34 [pamiparib]")
0.076

---

- EXPERIMENT SUMMARY: Surgical
- Type: in vivo
- DETAILS: human, non-enhancing tumor / plasma, oral, 60 mg
REPORTED PROPERTY: Kp uu

>>> result("C[C@]12CCCN1CC1=NNC(=O)c3cc(F)cc4[nH]c2c1c34")
0.92
